Attribution: the supplement of paper PMC12764529

I'd appreciate it if you could supply folding stability dG unfold values for the items below.
experiment: folding stability dG unfold (combined trypsin and chymotrypsin); higher = more stable

Some solved entries appear below for comparison.
Residue sequence	Result
SAGGGEIKIEIYRHPDTIMIRVKWDNPQQLKEEIIELFREENGFKPKEVSVQYNPNGYLYIMFEFKPKSAGG [r13_158_TrROS]	3.64 kcal/mol
SAGGSAGGSPPPRFRVVVVFEDGTRREFDLTPEELVAFAEVVPDVVVEELPPGEVRITVRLPGSAGGSAGGS [r20_231_TrMRF]	2.91 kcal/mol
SAGGNKATLTVSEDNYPVLLLELYAPDGELIATAPVLLDPEKGGLTAADLERLLKEIDVPPDVEVNIASAGG [r13_479_TrMRF]	1.32 kcal/mol

Items follow; give folding stability dG unfold for each.
1. SAGGMSLHIPLPANNEELAEELAEELRDLYAAIPGTPGEVEVDIEPTPEGGYRLIVRFPDHVDEIPASAGGS [r16_356_TrMRF]
2. SAGGMKTYEYELELEGGGRLRIKITEDPNNPVYTVTFYSPEGKKLKTITIPANSIEEALKEAIELLKSAGGS [r16_158_JUSTAS]
3. SPQNLVRIAEIKVELKLDGKKYIITIEVYRPPDSDEVIVRVKVIDPSSDKSSPELEKIAKELEKKIEEELKS [r1_229_JUSTAS]
4. SAGGSAGGSPVTVETSSQTSTVPLPTGPTVTLVTNTTTTTRPVPLSTPRSSSTTTVTTTVTVVSSAGGSAGG [r6_224_JUSTAS]
5. SAGGSAGGSAGGMPTTATITLPGGETLTVPVPVDPSTGTVSEEEIRALVGPEFEFEILGGSAGGSAGGSAGG [r7_492_JUSTAS]
6. SAGGSAGGSAGGVIVLKSDNSVIIITKKVYTENGKPKKTIIEKKNLKKKPPKPLSIEIISAGGSAGGSAGGS [r10_1043_JUSTAS]
7. SMRVVLVRPVPPELKEAELELRLPLPDGSEVEVKAETGEDFVVVTIELDDESAAEAVVEELEKLLEELLGSA [r9_790_TrMRF]
8. SAGGSAGGSAGGKKTLVIEFDLEPGGLTAEEIEELLRPYTGKEVRLETHPDGKPVAVVEGSAGGSAGGSAGG [r7_330_TrMRF]

1. 1.34 kcal/mol
2. 4.73 kcal/mol
3. 3.54 kcal/mol
4. < -1 kcal/mol
5. 1.24 kcal/mol
6. 0.681 kcal/mol
7. 1.13 kcal/mol
8. -0.393 kcal/mol

----------
experiment: folding stability dG unfold from trypsin proteolysis; higher = more stable
Provide the recorded folding stability dG unfold for the entries that follow.
One number for each entry, in kcal/mol.

Before answering, review these 10 worked examples.
Residue sequence	folding stability dG unfold [kcal/mol]
SAGMKIEIEAEYDPESGTVTLHIKEEPEPGEPVEVKFPIKFLKDKVEIEAETEEPLDPEEILKKIKEELSAG [r5_478_TrMRF]	-0.161
SAGGSAGGSAVTVDPSSNVVTTTDPATGTSTVTTTPPLPNGTPVLTSTTTTDAAGTPTTTTVTSAGGSAGGS [r12_952_JUSTAS]	2.63
SAGGSAMVYLVTVTIKSEGKEVRYKEWVESDEPEKLIEKVKKEYPNEEIKVEITPFPSKEEAEKLLSAGGSA [r15_889_JUSTAS]	2.36
SAGGKTLVITVEAPPEDWDKILELAREALELGGDVVVVAPFPDGLTVTVRAEKPLGKIVEVTVAPDDASAGG [r13_873_TrMRF]	0.578
SAGGPWVVIKIRTPNKPIEIPIPGFKIENTGDSMTIVFPPDDPDQVLDALEKASPGIKITKIEVVKPSAGGS [r8_490_TrROS]	0.65
SAGGSAGGSKEKKYLVIELKLKVPPGMSPEELAKLLESLPGLKVVEIVEVDEESGTVKIVVELSAGGSAGGS [r12_712_TrROS_Hall]	2.02
SMKVTLDGKGSVTTMPAEQLEVLIKELKEKGYKVKILSEEPDPNSDTVNYTIEITPPKPEKEEFENEELKSA [r9_448_JUSTAS]	0.948
SAGGDATIVLTDFPEDDPEARIRTARNLYRELKAAGPPLRINILTDTPLGREVADYLESEGIEVGLGSAGGS [r16_450_TrMRF]	-0.828
SAGMVIPILLKPEPERPEEVEKKAIEFANKLKPLNLPNVKIKVYRAPYVDPETGKTTVLYLVLIEVEPPSAG [r5_49_TrMRF]	1.83
SAGGSAPVVVVVTPKNGKPIKLKFKFTKKEEAEAAVEEIKKALPKNTKVEAFYVDEEVVKEDKEYLSAGGSA [r15_469_TrMRF]	1.16

Hi team, please reply with folding stability dG unfold for each item in this list.
1. SAGGSAGGSAGGKIKLTVEKTEDGYLRVTAEDEDTKETVVITLPKGTTLEEALKLLKELSAGGSAGGSAGGS [r10_825_TrROS_Hall]
2. SAGGMKVDPKTNITTIEFPSSNLPELKEAIEKTGEKPVVVILKDPNSDREVRITLTKEEALKYLEKKSAGGS [r16_797_JUSTAS]
3. SAGKTVTKTKTEYEYKDGKLEKKKVKTETIEPKPKIEVKEVKITLKDGSEVTAKIVSIDPKTKKVVIELSAG [r5_735_TrROS_Hall]
4. SAGGSAGGSAGGKKIIKVNLRIYDPVNPKVTVLPIEAPFDEIIKIAKEIAAPDQVVEISSAGGSAGGSAGGS [r10_397_TrMRF]

1: 3.14; 2: 0.209; 3: 0.26; 4: -0.844

----------
assay: folding stability dG unfold from chymotrypsin proteolysis; higher = more stable
Metric: folding stability dG unfold (kcal/mol)
Give bare numbers, in kcal/mol.

Solved entries (count: 2):
Residue sequence	Units label	folding stability dG unfold
SAGGSAAPLPPDETEVRVEYRYDPEKGVLVITTTTTRFTPEGGATPLETRPVVVEVTEEEKKKVELSAGGSA [r15_191_JUSTAS]	kcal/mol	1.04
SKKKVTIEIEIVVRVPEGDELKNMTAEELAALLAEELGVEVEIVEVELVEYDEETGEYYVRIKVKITFPESA [r9_107_TrROS_Hall]	kcal/mol	2.83

Value sought for every listed sequence: folding stability dG unfold.
1. SAGGSAGGMVIVFDKKNKTIYIYDKKTGKKIEIKVKSIEEAKEAIKKLFPNKKVEIVEVKIFKPSAGGSAGG [r6_286_TrROS_Hall]
2. SAGGSAGGSAGGMTIEINGKKYEIVEVKEEKGKLTLKIKVNGKLLEIEIDKDKNEIKIYPSAGGSAGGSAGG [r7_553_TrROS_Hall]
3. SAGGMTIPLEFEFESEEEAKEKAEEIAEELAKSFPEYEVEVKIEIKPVKDPNSDTTKWRVKMEITVGPSAGG [r13_545_JUSTAS]
4. SAGGSAGGSAKKELKIGNVEHNPGDGRYWANIQIKDGKPIVPVEFDDPQDPERFVKKAIKQLSAGGSAGGSA [r18_479_TrROS]
5. SAVSTAQLPDDTTLTTITLPGDPSVTLTITTRKLPDGTPYLDATITLPDGTPVTVTFPAGTEAAVIAALASA [r9_310_JUSTAS]

1. 1.9
2. 4.05
3. 4.38
4. -0.706
5. 2.46

----------
experiment: folding stability dG unfold (combined trypsin and chymotrypsin); higher = more stable
Think of 0.4 kcal/mol as a floor: if folding stability dG unfold stands on it or above, it is Criterion met; beneath it, Criterion not met.

Below, 3 sequences whose answers are already recorded.
Residue sequence	Category
SAGGGIEREVAPDEVVEIPIVRIEGDVAREETIEIRLPAGARIEPSGDKIRLWFPEEGKVLEIPLTELSAGG [r13_275_TrMRF]	Criterion not met
SAGGSAGGSAGGSMKITKTLIPETGLYKVTITLPGGKPVEIEAPPSSSLEEVKKKAEKLSAGGSAGGSAGGS [r4_205_JUSTAS]	Criterion not met
SASLVPTEREFELPGGERLRVTTPLDPNSDTPTVTVEKFTEAPDGTVTSTTTTVPPSEVAAVLEALGLRSAG [r14_416_JUSTAS]	Criterion met

Check if folding stability dG unfold >= 0.4 kcal/mol (inclusive). Item: SEPPPKIKIKEVEYNPDDGYLTIPVTHPNGPKMRVKFRPPDGKTQEIPPNSPTITIPLPPNMRLTEIEVDSA [r9_113_TrROS]
Criterion met

Same lookup for SAGGSAGGSAGGSDMEIVPRRIPDGFRLMVARNPEGTYTVQVWNPNGKPKWETIPPDEISAGGSAGGSAGGS [r4_120_TrROS] , please.
Criterion not met

Same thing, different sequence: SAGGNAEEIRDITRDIAEKHGGEVKDVEVEPEPNGRKELTFRMKEDPNTRIKITVDNNEIKITSIQPSAGGS [r8_432_TrROS]
Criterion not met

Then SSVNWKVLETKEEPETVVTLLENPENPELIVEVPVKRFEDPDSERREVTKTVWLPATGETLETEPAVIPLSA [r9_18_JUSTAS] ?
Criterion not met
